assay: basal 3T3-L1 adipocyte mitochondrial potential changes, profiling panel, cell-based, JC-1 fluorescence, 3T3-L1 adipocytes, 24 h, 100 nL compound (AID 1168); conditions: JC-1 mitochondrial fluorescence, higher = more signal, called active from +8 up or from −8 down; note: test concentration not given here
Label scheme for z-score: lower than -0.1 is not met, -0.1 and above is met.

Field: example entries. Status: answers known.
compound: Cc1nc2cc(Br)ccc2c(=O)n1Cc1cccc(O)c1
cat: met
//
compound: COC(=O)[C@@]1(Cc2ccccc2)[C@H]2c3cc(C(=O)N(C)C)n(CCn4cc([N+](=O)[O-])nc4C)c3C[C@H]2CN1C(=O)c1ccccc1
cat: met
//
compound: O=C(CS)NCCCCCCNC(=O)[C@@H]1C[C@@H]2C(=O)NCC(=O)N2[C@@H]1c1ccc(O)cc1
cat: met
//
compound: C[C@]1(C(=O)NCC(F)(F)F)c2ccccc2C(=O)N(Cc2ccccc2)[C@H]1c1ccc(CO)cc1
cat: met
//
compound: COC(=O)[C@@]1(Cc2ccccc2)[C@H]2c3cc(C(=O)N4CCCC4)n(CCSCCO)c3C[C@H]2CN1C(=O)c1ccccc1
cat: not met
//
compound: CCCCCN1CC=CC23O[C@@H]4C=CCOC(=O)[C@@H]4[C@H]2C(=O)N(CCO)[C@@H]3C1=O (some centres undefined)
cat: met
//
compound: C=CCNC(=O)[C@H]1[C@@H]2C(=O)O[C@@H](c3ccccc3)[C@@H](c3ccccc3)N2[C@@H](c2ccc(OCCO)cc2)[C@]12C(=O)N(C(=O)OCCOC)c1ccc(C#Cc3ccc(OC)cc3)cc12
cat: met
//
compound: [N-]=[N+]=Nc1ccccc1C[C@]1(C(=O)NCc2ccccc2)COC(c2ccc(OCCCO)cc2)=N1
cat: met
//
compound: CC(=O)NCCCC[C@@H]1NC(=O)[C@@H]2C[C@H](C(=O)NCCCCCCN)[C@H](c3cccc(OCCO)c3)N2C1=O
cat: met
//
compound: CCOC(=O)C[C@H]1[C@H](OC(=O)c2ccc(-c3ccccc3)cc2)[C@@H](NC(=O)Cc2ccc(OC)cc2)c2cc(OCCCO)ccc2N1C(=O)Cc1ccc(OC)cc1
cat: met

State whether the measured z-score reaches -0.1, counting equality as reaching it, for COCC1C2CC[C@H]3C(OCc4ccc(OC)cc4)OC[C@]4(C)[C@H]3C2=C(CN4C(=O)OC(C)(C)C)[C@H](C)C1COC (some centres undefined)
not met

State whether the measured z-score reaches -0.1, counting equality as reaching it, for `COCC(=C=CC[C@@H](O)c1ccc(OCCO)cc1)CCO`
met

State whether the measured z-score reaches -0.1, counting equality as reaching it, for `COC(=O)c1c2oc(c1C(=O)OC)C(=O)N1CCC[C@H]1Cn1nncc1CN(Cc1ccccc1)C(=O)N[C@H](CO)CC2`
met

---

assay: basal RPMI8226 viability, no added stimulus, profiling panel, cell-based, calcein-AM fluorescence, 48 h, PK04 Diversity Set (AID 1166); conditions: RPMI8226 myeloma viability, higher = more signal;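 note: cells grown under basal conditions without added stimulus; test concentration not given here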
measured endpoint: z-score

molecule: CCOC(=O)C1=CC[C@@H](c2ccccc2)N(S(=O)(=O)c2ccc(C)cc2)[C@H]1C=Cc1ccccc1
z-score: -1.44

Using the record for Cc1ccccc1C(O)C1C=CC2C(=O)N(c3ccccc3)C(=O)C2N1Nc1ccc([N+](=O)[O-])cc1 (stereo not drawn) , report its z-score.
-0.566

Using the record for CC(C)C[C@@H]1NC(=O)[C@@]23C(=O)N[C@@H](Cc4ccccc4)C2[C@H](C)[C@@]2(C)O[C@H]2C3/C=C/C/C=C\CNC(=O)[C@@H](C)NC1=O (stereo partly drawn) , report its z-score.
-1.12

Using the record for `O=C1[C@@]23C=C(Br)[C@H](C[C@@H]2COC3)[C@@]12CO2` , report its z-score.
-1.1

---

biological target: Torsin-1A-interacting protein 2 (Homo sapiens) (UniProt Q8NFQ8); assay: LULL1 binders on small-molecule microarray, primary screen, cell lysate, human LULL1 lysate, 635/667 nm fluorescence (AID 1092); conditions: hLULL1 lysate binding, 635 nm fluorescence, higher = more signal;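 note: probe is lysate of COS7 cells overexpressing human LULL1; score merges per-feature 667 nm fluorescence with signal-to-noise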
Sequence (Q8NFQ8 whole entry, looked up): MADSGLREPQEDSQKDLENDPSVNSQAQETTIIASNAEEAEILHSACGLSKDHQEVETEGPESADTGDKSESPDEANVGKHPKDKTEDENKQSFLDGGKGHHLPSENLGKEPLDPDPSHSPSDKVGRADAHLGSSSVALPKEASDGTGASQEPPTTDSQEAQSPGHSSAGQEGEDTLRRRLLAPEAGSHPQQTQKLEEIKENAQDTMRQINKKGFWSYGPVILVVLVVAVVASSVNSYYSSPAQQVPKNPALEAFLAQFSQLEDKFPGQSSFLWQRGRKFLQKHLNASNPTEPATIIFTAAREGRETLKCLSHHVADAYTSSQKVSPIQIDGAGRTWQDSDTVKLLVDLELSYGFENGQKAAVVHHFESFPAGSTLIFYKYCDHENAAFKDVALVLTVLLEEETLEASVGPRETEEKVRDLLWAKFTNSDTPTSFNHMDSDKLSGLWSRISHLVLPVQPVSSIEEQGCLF
measured endpoint: composite z-score
Please reply with the number alone, leaving off any unit.

Solved cases (2 shown):
chem smiles: CCOC(=O)C1=C[C@@H](C(C)(C)C)N(S(=O)(=O)c2ccc(C)cc2)[C@H]1c1cccc(Cl)c1
composite z-score: 2.81

chem smiles: COCCOC(=O)N1C(=O)[C@@]2(c3cc(C#CCCO)ccc31)[C@H](C(N)=O)[C@H]1C(=O)O[C@H](c3ccccc3)[C@H](c3ccccc3)N1[C@@H]2c1ccc(OCCO)cc1
composite z-score: 3.02

Please look at the following molecule next.
Write down the reported composite z-score of `CCOC(=O)C[C@H]1[C@H](OC(=O)c2ccc(-c3ccccc3)cc2)[C@@H](NC(=O)CC(C)C)c2cc(OCCCO)ccc2N1C(=O)c1ccccc1` , test system: Torsin-1A-interacting protein 2 (Homo sapiens) (UniProt Q8NFQ8).
1.49

---

composite z-score values, listed per item
system: Chordin-like protein 2 (CHRDL2); experiment: CHRDL2 small-molecule binders, primary screen, biochemical, small-molecule microarray, 635 nm fluorescence (AID 1126); details: small-molecule microarray binding, fluorescence 635 nm; higher = more signal;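 note: printed compound slides probed with Chrdl2 protein at 4 µg/mL for 1 h at 4 C; score merges 667 nm emission intensity with signal to noise over three replicate slides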
Please reply with the number alone, leaving off any unit.

Solved cases (5 shown):
compound: Cc1ccc(S[C@]2(C(=O)NC(C)C)CC(=O)N(C(C)C)[C@@H]2c2ccc(CO)cc2I)cc1
composite z-score: -0.598

compound: COc1ccc([Si](C)(C)[C@H]2[C@H](CCO)O[C@@]3(C(=O)N(Cc4ccccc4)c4ccc(N5C(=O)c6ccccc6Oc6ccccc65)cc43)[C@@H]2C)cc1
composite z-score: 0.214

compound: O=C1OCCC/C=C\[C@H]2OC34C=CCN(c5ccc6ccccc6c5)C(=O)[C@H]3N(CCCO)C(=O)[C@@H]4C12 (some centres not stated)
composite z-score: -1.08

compound: CCOC(=O)C[C@H]1[C@H](OC(=O)c2ccc(C(=O)c3ccccc3)cc2)[C@@H](NC(=O)CC(C)C)c2cc(OCCCO)ccc2N1C(=O)Cc1ccc(OC)cc1
composite z-score: -0.612

compound: CN1C(=O)C2C=CC(C(O)c3cc(C(F)(F)F)cc(C(F)(F)F)c3)N(Nc3ccccc3)C2C1=O (configuration not stated)
composite z-score: -0.616

Using the record for C=CCC(OC(C)=O)[C@@H]1[C@@H](N(Cc2ccc(-c3ccccc3)cc2)C(=O)Cc2ccc(F)cc2)c2cc(OCCCO)ccc2N1C(=O)Cc1ccc2ccccc2c1 (some centres not stated) , report its composite z-score.
-0.353

Using the record for `Cc1ccc([C@H]2C(C(=O)O)=C[C@@H](C(C)(C)C)N2S(=O)(=O)c2ccc(C)cc2)cc1` , report its composite z-score.
-0.202

---

z-score values, listed per item
experiment: Plasmodium falciparum growth inhibition, primary screen, strain 3D7, DAPI fluorescence, 100 nL (AID 1184);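 note: parasites grown inside human red blood cells in medium with human serum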; settings: P. falciparum 3D7 growth, 3 d, higher = more signal
Please reply with the number alone, leaving off any unit.

Solved cases (2 shown):
molecule: CC(C)C(CO)N1C(=O)[C@@H]2[C@H]3C(=O)OCC=C[C@H]3OC23C=CCN(C(C)(C)C)C(=O)[C@@H]13 (stereo partly drawn)
z-score: -0.217
//
molecule: O=C1C2C=CC(C(O)c3ccc(I)cc3)N(Nc3ccccc3)C2C(=O)N1c1ccccc1 (stereo not drawn)
z-score: 0.83

Using the record for CCCCCCCCCCC(O)C1C=CC2C(=O)N(c3ccccc3)C(=O)C2N1Nc1ccccc1F (stereo not drawn) , report its z-score.
0.157

Using the record for COc1cc2c(cc1O)C(c1cccs1)N(Cc1sc3ccccc3c1Cl)CC2 (stereo not drawn) , report its z-score.
-1.66

Using the record for `NC(=O)[C@@H]1[C@H]2C(=O)O[C@H](c3ccccc3)[C@H](c3ccccc3)N2[C@H](c2ccc(OCCO)cc2)[C@@]12C(=O)Nc1ccc(C#CCCO)cc12` , report its z-score.
0.195

Using the record for `C=CCNC(=O)[C@H]1[C@@H]2C(=O)O[C@@H](c3ccccc3)[C@@H](c3ccccc3)N2[C@@H](c2ccc(OCCO)cc2)[C@]12C(=O)N(C(=O)OCCOC)c1ccc(C#Cc3ccc(OC)cc3)cc12` , report its z-score.
-2.38

Using the record for `C=CC[C@H](OC(=O)Nc1ccc(SC)cc1)c1ccc(OCCO)cc1` , report its z-score.
0.749

Using the record for COc1cc2c(cc1O)C(c1ccc(CN3CCCC3)cc1)N(C)CC2 (stereo not drawn) , report its z-score.
-1.58

---

assay: binders of probe aHhip on microarray, primary screen, stem cell growth factor project, biochemical, small-molecule microarray, fluorescence 635/667 (AID 1087); conditions: higher = more signal;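 note: score merges spot fluorescence at 667nm with spot signal to noise ratio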
measured endpoint: composite z-score
Please reply with the number alone, leaving off any unit.

Solved cases (5 shown):
molecule: COCCOC(=O)N1C(=O)[C@@]2(c3cc(C#CCCO)ccc31)[C@H](c1ccccc1OCCO)N1[C@H](c3ccccc3)[C@H](c3ccccc3)OC(=O)[C@H]1[C@@H]2C(=O)N1CCCCCCC1
composite z-score: 2.43
--
molecule: COCCCNC(=O)[C@@]1(c2ccc([N+](=O)[O-])cc2)CC(=O)N(C(C)C)[C@@H]1c1ccc(CO)cc1
composite z-score: 0.526
--
molecule: CCCCCCCCCCC(O)C1C=CC2C(=O)N(C)C(=O)C2N1Nc1cc(OC)c(OC)c(OC)c1 (stereo unspecified)
composite z-score: -0.21
--
molecule: COC(=O)[C@@]1(Cc2ccccc2)[C@H]2c3cc(C(=O)N(C)C)n(CCn4cc([N+](=O)[O-])nc4C)c3C[C@H]2CN1C(=O)c1ccccc1
composite z-score: -0.281
--
molecule: CC(C)C[C@@H]1NC(=O)[C@@]23C(=O)N[C@@H](Cc4ccccc4)C2[C@H](C)[C@@]2(C)O[C@H]2C3/C=C/C/C=C\CNC(=O)[C@@H](C)NC1=O (stereo partly specified)
composite z-score: -0.12

Please look at the following molecule next.
Using the record for `COC(=O)[C@@]1(Cc2ccc(F)cc2)[C@H]2c3cc(C(=O)N(C)C)n(Cc4c(CO)[nH]cc(C)c4=O)c3C[C@H]2CN1C(=O)c1ccccc1` , report its composite z-score.
-0.0237
